# TARGET UNDER TEST: rat α2B (RNG gene) receptor (Rattus norvegicus)
# Construct: expressed in transfected cells; host or cells: NIH-3T3 cells, calcium phosphate cotransfection
# Sequence (P19328 whole entry): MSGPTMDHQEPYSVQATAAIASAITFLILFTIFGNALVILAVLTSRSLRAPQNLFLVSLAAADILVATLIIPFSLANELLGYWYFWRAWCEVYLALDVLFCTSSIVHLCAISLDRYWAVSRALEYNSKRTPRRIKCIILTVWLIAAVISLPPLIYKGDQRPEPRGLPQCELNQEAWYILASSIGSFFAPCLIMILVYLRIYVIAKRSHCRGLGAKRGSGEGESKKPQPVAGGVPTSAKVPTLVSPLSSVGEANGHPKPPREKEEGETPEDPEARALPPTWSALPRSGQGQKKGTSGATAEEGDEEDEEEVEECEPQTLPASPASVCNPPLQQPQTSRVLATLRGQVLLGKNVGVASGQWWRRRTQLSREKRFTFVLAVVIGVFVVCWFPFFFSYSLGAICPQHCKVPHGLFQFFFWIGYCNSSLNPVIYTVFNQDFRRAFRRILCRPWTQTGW
# ASSAY COMMENT: RSAT (Receptor Selection and Amplification Technology) assay, alpha 2B
# Format: cell-based
# CONDITION: ratio of maximal effect to that of standard full agonist oxymetazoline
MEASURED ATTRIBUTE: Intrinsic Activity Relative to Oxymetazoline, Alpha 2B
Give only the figure.

c1ccc2sc(Cc3c[nH]cn3)cc2c1    0.88
COc1ccc2c(c1)C(=O)C(Cc1c[nH]cn1)CC2 (centres unmarked)    0.6
CC1CC(Cc2c[nH]cn2)C(=O)c2ccccc21 (centres unmarked)    0.7
CC(C)(C)c1ccc(Cc2c[nH]cn2)o1    0.7
c1ccc(Sc2c[nH]cn2)cc1    0.93

Data request: Using known records, supply Intrinsic Activity Relative to Oxymetazoline, Alpha 2B for c1nc(CC2CCc3sccc3C2)c[nH]1 (centres unmarked)
Data returned: 0.46

Data request: Using known records, supply Intrinsic Activity Relative to Oxymetazoline, Alpha 2B for O=C1c2ccccc2OCC1Cc1c[nH]cn1 (centres unmarked)
Data returned: 0.77

Data request: Using known records, supply Intrinsic Activity Relative to Oxymetazoline, Alpha 2B for `c1nc(Cc2cc3c(s2)CCCC3)c[nH]1`
Data returned: 0.53

Data request: Using known records, supply Intrinsic Activity Relative to Oxymetazoline, Alpha 2B for COCC1=CCCC(Cc2c[nH]cn2)C1 (centres unmarked)
Data returned: 1

Data request: Using known records, supply Intrinsic Activity Relative to Oxymetazoline, Alpha 2B for `CCc1ccc(Cc2c[nH]cn2)o1`
Data returned: 0.5

* * *

# Test system: conscious cynomolgus monkeys
# ASSAY COMMENT: Cardiovascular side effects (blood pressure, heart rate) after i.v. administration
# Format: in vivo, cynomolgus monkey
# CONDITION: i.v. 50 μg/kg, up to 6 hours; + with * = increase from base levels
# Excerpt: Cardiovascular measurements were made in a different group of monkeys using a BP 100S automated sphygmomanometer (Nippon Colin,. Japan).
MEASURED ATTRIBUTE: Maximum % Decrease From Pretreatment Levels, Mean Arterial Blood Pressure (%)
Hi! Could you send only the number? It should be in %, unit omitted.

# example entries with known answers
c1nc(Cc2ccsc2)c[nH]1    12.8
Clc1cccc(Cl)c1N=C1NCCN1 [clonidine, reference compound]    35

Let us move to another entry and its Maximum % Decrease From Pretreatment Levels, Mean Arterial Blood Pressure.
Data request: Using known records, supply Maximum % Decrease From Pretreatment Levels, Mean Arterial Blood Pressure for `c1ccc2sc(Cc3c[nH]cn3)cc2c1`
Data returned: 0.1

* * *

# TARGET UNDER TEST: rat α2B (RNG gene) receptor (Rattus norvegicus)
# Construct: expressed in transfected cells; host or cells: NIH-3T3 cells, calcium phosphate cotransfection
# ASSAY COMMENT: RSAT (Receptor Selection and Amplification Technology) assay, alpha 2B
# Format: cell-based
# CONDITION: ratio of maximal effect to that of standard full agonist oxymetazoline
MEASURED ATTRIBUTE: Intrinsic Activity Relative to Oxymetazoline, Alpha 2B
Give only the figure.

# example entries with known answers
c1ccc(-c2csc(Cc3c[nH]cn3)c2)cc1    0.5
Cc1ccsc1Cc1cnc[nH]1 [reference compound]    1.4
O=C1/C(=C/c2c[nH]cn2)CCCc2ccccc21 [Example B-11b]    0.3
C1=C(Cc2c[nH]cn2)CSc2ccccc21    0.8

Data request: Report value only: Intrinsic Activity Relative to Oxymetazoline, Alpha 2B, rat α2B (RNG gene) receptor (Rattus norvegicus), CC1=CCCCC1Cc1cnc[nH]1 (centres unmarked)
Data returned: 0.8

Data request: Report value only: Intrinsic Activity Relative to Oxymetazoline, Alpha 2B, rat α2B (RNG gene) receptor (Rattus norvegicus), c1cc2c(cn1)CCC(Cc1c[nH]cn1)C2 (centres unmarked)
Data returned: 0.6

Data request: Report value only: Intrinsic Activity Relative to Oxymetazoline, Alpha 2B, rat α2B (RNG gene) receptor (Rattus norvegicus), c1cc2c(cn1)CC(Cc1c[nH]cn1)CC2 (centres unmarked)
Data returned: 0.4

Data request: Report value only: Intrinsic Activity Relative to Oxymetazoline, Alpha 2B, rat α2B (RNG gene) receptor (Rattus norvegicus), C=CC1=CCC(Cc2c[nH]cn2)CC1 (centres unmarked)
Data returned: 0.7

Data request: Report value only: Intrinsic Activity Relative to Oxymetazoline, Alpha 2B, rat α2B (RNG gene) receptor (Rattus norvegicus), c1ccc2c(c1)OCCC2Cc1cnc[nH]1 (centres unmarked)
Data returned: 0.8

Data request: Report value only: Intrinsic Activity Relative to Oxymetazoline, Alpha 2B, rat α2B (RNG gene) receptor (Rattus norvegicus), `Cc1ccc(N=C2NCCN2)c2c1NCCO2.Cl`
Data returned: 0.87

Data request: Report value only: Intrinsic Activity Relative to Oxymetazoline, Alpha 2B, rat α2B (RNG gene) receptor (Rattus norvegicus), CC1CC(Cc2c[nH]cn2)Cc2ccccc21 (centres unmarked)
Data returned: 0.75
